Hello, the source for this data is paper PMC3317778, in case you need it.

molecular target: CXC chemokine receptor-4 (CXCR4) (Homo sapiens, UniProt P61073); assay: competition with biotinylated TN14003 on MDA-MB-231 cells (immunofluorescence); supported by CXCL12-induced cAMP modulation assay in CXCR4-expressing cells (IC50 is for CXCR4/CXCL12 actions)
Sequence (P61073 whole entry): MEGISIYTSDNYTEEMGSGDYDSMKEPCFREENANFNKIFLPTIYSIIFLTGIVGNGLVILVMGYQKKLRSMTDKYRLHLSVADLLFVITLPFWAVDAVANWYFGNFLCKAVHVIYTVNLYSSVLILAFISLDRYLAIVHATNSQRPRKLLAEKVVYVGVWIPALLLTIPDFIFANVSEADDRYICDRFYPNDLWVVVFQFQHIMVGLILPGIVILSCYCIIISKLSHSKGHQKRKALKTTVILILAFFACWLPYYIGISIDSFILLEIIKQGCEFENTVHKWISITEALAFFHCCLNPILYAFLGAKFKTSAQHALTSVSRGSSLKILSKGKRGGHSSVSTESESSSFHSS
pIC50: −log10 of the molar value.
Reported metric: pIC50

What value of pIC50 has been recorded for this entry: c1cnc(NCc2ccc(CNc3ncccn3)cc2)nc1
~8.00
